Numbers sourced from paper PMC10005332.

System: SNB-19 (human astrocytoma)
Test: MTT cytotoxicity assay, SNB-19
Assay type: cell-based
Conditions: ratio of cytotoxicity L929 / SNB-19
PROPERTY NAME: Selectivity index SNB-19
One number for each entry.

List reported Selectivity index SNB-19 for each of these compounds:
1. CC1(C)OC2=C(CC1Cn1cc(CNC3=CC(=O)c4c(I)cccc4C3=O)nn1)C(=O)C(=O)c1ccccc12 (stereo not shown) [Compound 21a]
2. [N-]=[N+]=NCC1CC2=C(O1)c1ccccc1C(=O)C2=O (stereo not shown)
3. O=C1C(=O)c2ccccc2C2=C1CC(Cn1cc(CNC3=CC(=O)c4c(I)cccc4C3=O)nn1)O2 (stereo not shown) [Compound 20a]
4. CC1(C)OC2=C(C(=O)C(=O)c3ccccc32)C1n1cc(CNC2=CC(=O)c3cc4ccccc4cc3C2=O)nn1 (stereo not shown) [Compound 19e]

A)
[0.6, 2.4, 0.7, 1.4]
